experiment: Metabolic stability in human liver microsomes assessed as compound remaining after 30 mins; type: ADME, Microsome; settings: read-out: Stability

compound	relationSign	remaining at 0.5 h (%)
NS(=O)(=O)c1cccc(C[C@H](NC(=O)c2c(Cl)cc3c(c2Cl)CCN(C(=O)c2ccc4ccoc4c2)C3)C(=O)O)c1	=	71
CP(C)(=O)c1cccc(C[C@H](NC(=O)c2c(Cl)cc3c(c2Cl)CCN(C(=O)c2ccc4ccoc4c2)C3)C(=O)O)c1	>	95
CS(=O)(=O)c1ccc(C[C@H](NC(=O)c2c(Cl)cc3c(c2Cl)CCN(C(=O)c2ccc(Cl)cc2)C3)C(=O)O)o1	=	92
C[S+]([O-])c1cncc(CC(NC(=O)c2c(Cl)cc3c(c2Cl)CCN(C(=O)c2ccc4ccoc4c2)C3)C(=O)O)c1 (racemic)	>	95

* * *

molecular target: Intercellular adhesion molecule (ICAM-1), Integrin alpha-L/beta-2 (Homo sapiens, UniProt P05107+P05362+P20701); experiment: Antagonist activity at LFA-1/ICAM-1 in human HuT-78 T-cells assessed as inhibition of cell adhesion after 1 hr by p-nitrophenyl n-acetyl-beta-D-glucosaminide method; type: functional, cell-based, HuT78
Sequence (P20701 whole entry): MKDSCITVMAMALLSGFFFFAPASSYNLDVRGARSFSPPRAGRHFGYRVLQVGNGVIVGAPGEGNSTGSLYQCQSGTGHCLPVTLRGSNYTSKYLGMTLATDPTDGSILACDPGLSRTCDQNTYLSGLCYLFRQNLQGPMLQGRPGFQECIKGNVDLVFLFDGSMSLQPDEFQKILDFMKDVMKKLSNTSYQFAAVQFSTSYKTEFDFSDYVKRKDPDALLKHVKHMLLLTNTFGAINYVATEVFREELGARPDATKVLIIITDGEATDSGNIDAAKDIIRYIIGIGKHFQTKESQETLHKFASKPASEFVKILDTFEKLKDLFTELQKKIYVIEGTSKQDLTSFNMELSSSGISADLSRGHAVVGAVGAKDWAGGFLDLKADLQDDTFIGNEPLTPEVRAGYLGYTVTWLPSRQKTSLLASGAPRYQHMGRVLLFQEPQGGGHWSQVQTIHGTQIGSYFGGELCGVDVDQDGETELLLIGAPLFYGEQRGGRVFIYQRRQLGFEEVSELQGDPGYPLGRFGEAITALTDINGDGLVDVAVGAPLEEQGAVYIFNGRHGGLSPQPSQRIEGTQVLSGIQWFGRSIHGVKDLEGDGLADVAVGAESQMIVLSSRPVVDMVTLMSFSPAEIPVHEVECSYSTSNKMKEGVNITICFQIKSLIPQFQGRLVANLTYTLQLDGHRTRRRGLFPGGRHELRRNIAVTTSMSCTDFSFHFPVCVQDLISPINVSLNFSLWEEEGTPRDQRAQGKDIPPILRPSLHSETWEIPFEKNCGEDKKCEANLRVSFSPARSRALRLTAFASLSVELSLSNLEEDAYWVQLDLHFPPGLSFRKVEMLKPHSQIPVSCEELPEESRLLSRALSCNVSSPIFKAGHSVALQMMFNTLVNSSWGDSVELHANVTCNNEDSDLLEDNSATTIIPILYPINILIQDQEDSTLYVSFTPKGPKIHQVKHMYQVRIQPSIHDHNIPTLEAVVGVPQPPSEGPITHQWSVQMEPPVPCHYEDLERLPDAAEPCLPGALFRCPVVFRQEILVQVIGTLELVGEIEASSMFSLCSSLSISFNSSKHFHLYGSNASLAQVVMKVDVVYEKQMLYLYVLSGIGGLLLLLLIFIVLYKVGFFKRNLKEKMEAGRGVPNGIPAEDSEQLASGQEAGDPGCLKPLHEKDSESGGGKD
Sequence (P05362 whole entry): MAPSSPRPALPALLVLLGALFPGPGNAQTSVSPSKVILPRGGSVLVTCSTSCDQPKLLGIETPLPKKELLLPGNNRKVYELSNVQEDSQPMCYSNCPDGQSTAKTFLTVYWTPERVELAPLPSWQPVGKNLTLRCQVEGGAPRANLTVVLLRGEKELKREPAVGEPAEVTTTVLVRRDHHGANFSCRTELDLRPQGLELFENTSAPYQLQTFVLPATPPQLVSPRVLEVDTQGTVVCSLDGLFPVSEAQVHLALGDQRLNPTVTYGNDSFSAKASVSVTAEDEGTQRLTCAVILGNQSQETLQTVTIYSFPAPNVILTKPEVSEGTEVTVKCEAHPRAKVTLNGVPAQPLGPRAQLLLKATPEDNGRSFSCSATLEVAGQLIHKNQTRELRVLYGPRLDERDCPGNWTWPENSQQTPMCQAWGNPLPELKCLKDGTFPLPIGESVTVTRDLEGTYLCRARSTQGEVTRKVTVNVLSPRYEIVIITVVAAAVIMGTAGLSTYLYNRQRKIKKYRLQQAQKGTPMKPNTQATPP
Sequence (P05107 whole entry): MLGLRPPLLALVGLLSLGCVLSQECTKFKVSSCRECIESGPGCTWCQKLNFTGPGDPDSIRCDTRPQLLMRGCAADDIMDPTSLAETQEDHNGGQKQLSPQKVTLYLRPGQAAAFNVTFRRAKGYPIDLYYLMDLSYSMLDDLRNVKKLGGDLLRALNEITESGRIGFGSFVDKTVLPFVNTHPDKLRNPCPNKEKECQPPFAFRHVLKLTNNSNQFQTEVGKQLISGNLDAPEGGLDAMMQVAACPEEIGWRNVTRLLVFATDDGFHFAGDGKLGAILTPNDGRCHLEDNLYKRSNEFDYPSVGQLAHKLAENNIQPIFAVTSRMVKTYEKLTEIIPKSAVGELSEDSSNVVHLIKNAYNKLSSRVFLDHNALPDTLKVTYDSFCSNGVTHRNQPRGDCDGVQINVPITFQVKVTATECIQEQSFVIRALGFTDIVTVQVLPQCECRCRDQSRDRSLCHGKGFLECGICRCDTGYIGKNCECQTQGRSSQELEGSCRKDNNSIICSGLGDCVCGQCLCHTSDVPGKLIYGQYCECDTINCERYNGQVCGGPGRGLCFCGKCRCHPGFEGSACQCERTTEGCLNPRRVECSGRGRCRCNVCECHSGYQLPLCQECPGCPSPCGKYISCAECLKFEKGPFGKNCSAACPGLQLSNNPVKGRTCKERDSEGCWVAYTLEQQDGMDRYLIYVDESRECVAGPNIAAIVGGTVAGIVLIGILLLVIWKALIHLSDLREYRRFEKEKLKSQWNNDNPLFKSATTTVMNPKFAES
Label label 1 when IC50 is strictly below 200 nM; otherwise label label 0.

molecule	classLabel
CS(=O)(=O)c1ccc(C[C@H](NC(=O)c2c(Cl)cc3c(c2Cl)CCN(C(=O)c2ccc(Cl)cc2)C3)C(=O)O)cc1	label 0
CS(=O)(=O)c1cccc(C[C@H](NC(=O)c2c(Cl)cc3c(c2Cl)CCN(C(=O)c2ccc4ccoc4c2)C3)C(=O)O)c1Cl	label 0
CP(C)(=O)c1cccc(C[C@H](NC(=O)c2c(Cl)cc3c(c2Cl)CCN(C(=O)c2ccc4ccoc4c2)C3)C(=O)O)c1	label 1
C[C@@H](O)c1cccc(C[C@H](NC(=O)c2c(Cl)cc3c(c2Cl)CCN(C(=O)c2ccc4ccoc4c2)C3)C(=O)O)c1	label 1
CS(=O)(=O)c1ccc(C[C@H](NC(=O)c2c(Cl)cc3c(c2Cl)CCN(C(=O)c2ccc(Cl)cc2)C3)C(=O)O)o1	label 1
CNS(=O)(=O)c1cccc(C[C@H](NC(=O)c2c(Cl)cc3c(c2Cl)CCN(C(=O)c2ccc4ccoc4c2)C3)C(=O)O)c1	label 1
C[S+]([O-])c1cncc(CC(NC(=O)c2c(Cl)cc3c(c2Cl)CCN(C(=O)c2ccc4ccoc4c2)C3)C(=O)O)c1 (racemic)	label 1

* * *

target: Cytochrome P450 3A4 (Homo sapiens)
Sequence (P08684 whole entry): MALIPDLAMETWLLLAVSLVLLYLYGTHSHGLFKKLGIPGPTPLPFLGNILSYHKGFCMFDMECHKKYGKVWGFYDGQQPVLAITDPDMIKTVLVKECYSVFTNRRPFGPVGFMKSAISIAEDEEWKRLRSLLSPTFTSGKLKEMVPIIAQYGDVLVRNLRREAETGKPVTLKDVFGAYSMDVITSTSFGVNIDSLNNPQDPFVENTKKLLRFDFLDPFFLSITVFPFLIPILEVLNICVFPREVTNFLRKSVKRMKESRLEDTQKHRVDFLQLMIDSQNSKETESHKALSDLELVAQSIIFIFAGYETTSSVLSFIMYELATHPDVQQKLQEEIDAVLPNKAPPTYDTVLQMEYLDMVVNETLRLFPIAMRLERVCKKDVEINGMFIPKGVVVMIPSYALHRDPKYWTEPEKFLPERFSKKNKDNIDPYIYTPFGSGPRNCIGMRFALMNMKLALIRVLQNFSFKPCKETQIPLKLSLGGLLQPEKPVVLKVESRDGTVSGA

cpdSmiles	IC50
CS(=O)(=O)c1cccc(C[C@H](NC(=O)c2c(Cl)cc3c(c2Cl)CCN(C(=O)c2ccc4ccoc4c2)C3)C(=O)O)c1	> 20 µM

* * *

A collection of compounds and their measured pIC50
molecular target: Intercellular adhesion molecule (ICAM-1), Integrin alpha-L/beta-2 (Homo sapiens, UniProt P05107+P05362+P20701); test: Antagonist activity at LFA-1/ICAM-1 in human HuT-78 T-cells assessed as inhibition of cell adhesion after 1 hr by p-nitrophenyl n-acetyl-beta-D-glucosaminide method in presence of 10% human serum; format: functional, cell-based, HuT78
pIC50: −log10 of the molar value.

compound	pIC50
C[C@H](O)c1cccc(C[C@H](NC(=O)c2c(Cl)cc3c(c2Cl)CCN(C(=O)c2ccc4ccoc4c2)C3)C(=O)O)c1	6.03
CS(=O)(=O)c1cc(F)cc(C[C@H](NC(=O)c2c(Cl)cc3c(c2Cl)CCN(C(=O)c2ccc4ccoc4c2)C3)C(=O)O)c1	6.59
C[C@@H](O)c1cccc(C[C@H](NC(=O)c2c(Cl)cc3c(c2Cl)CCN(C(=O)c2ccc4ccoc4c2)C3)C(=O)O)c1	5.40
CP(C)(=O)c1cccc(C[C@H](NC(=O)c2c(Cl)cc3c(c2Cl)CCN(C(=O)c2ccc4ccoc4c2)C3)C(=O)O)c1	6.31
CS(=O)(=O)c1cc(Cl)cc(C[C@H](NC(=O)c2c(Cl)cc3c(c2Cl)CCN(C(=O)c2ccc4ccoc4c2)C3)C(=O)O)c1	6.70
CS(=O)(=O)c1cccc(C[C@H](NC(=O)c2c(Cl)cc3c(c2Cl)CCN(C(=O)c2ccc4ccoc4c2)C3)C(=O)O)c1	7.13
C[S+]([O-])c1cncc(CC(NC(=O)c2c(Cl)cc3c(c2Cl)CCN(C(=O)c2ccc4ccoc4c2)C3)C(=O)O)c1 (racemic)	7.30
